# Method Notes: non-specific 3'UTR reporter inhibition in Clone20-Shn3RL – cell-based, Renilla luciferase, cherry-picked, counter-screen for Shn3 inhibitor project, dose response (AID 624133)
# Type: functional
Active and inactive are the calls of the source.
Endpoint Name: AC50

Please state, for each entry, its recorded AC50.
1. Fc1ccc(/C=C2\CCCC3=C2Nc2ncnn2C3c2ccc(F)cc2)cc1 (stereo not given)
2. Cc1cc(C)c(O)c(-c2cc(C(=O)Nc3ccc(S(=O)(=O)N4CCOCC4)cc3)[nH]n2)c1
3. C=C1CC2(CC(c3ccccc3)OC(c3ccccc3)C2)OC1=O (stereo not given)

**A:**
1. 11.3 µM (active)
2. 7.37 µM (active)
3. 7.45 µM (active)

Please state, for each entry, its recorded AC50.
1. Cc1ccc(Cn2ccc(NC(=O)c3nn(C)cc3[N+](=O)[O-])n2)cc1
2. O=C(Nc1ccc(Cl)cc1)c1cc(S(=O)(=O)N2CCOCC2)cs1

**A:**
["27.3 µM (active)", "14.7 µM (active)"]

* * *

Target or system Glyceraldehyde-3-phosphate dehydrogenase (Homo sapiens): recorded IC50 listed per item.

Worked set:
CCOC(=O)CS(=O)(=O)c1nc2c(c(C(F)(F)F)n1)CCc1ccccc1-2 = > 100 µM (not active)
Cn1c(SCC(=O)O)nc2sc3c(c2c1=O)CCC3 = > 100 µM (not active)
O=C(CCC1CCCCC1)Nc1nc[nH]n1 = > 10 µM (inconclusive)
COc1ccc(-c2cc(N)n(S(=O)(=O)c3ccc(F)cc3)n2)cc1OC = > 100 µM (not active)

**Q:** Give the measured IC50 for O=C1C(Cl)=C(N2CCN(CCO)CC2)C(=O)N1c1ccnc(Cl)c1
**A:** > 50 µM (inconclusive)

* * *

# System: Streptococcus
# Method Notes: GAS UMAA2166 growth inhibition – luminescence, BacTiterGlo, counter-screen for streptokinase expression inhibitor project, dose response (AID 1915);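 further: potency for reduction of bacterial viability or growth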
# Type: functional, organism-based
Calls of active or inactive are those of the source.
Endpoint Name: EC50

Worked set:
O=C(Nc1ccc2c(c1)CCC2)c1cc(S(=O)(=O)Nc2ccc(F)cc2)c(Cl)cc1Cl = 15.2 µM (active)
CCN(CC)c1ccc(C(=O)OCc2cc(=O)oc3cc(O)ccc23)cc1 = > 150 µM (not active)
COCc1cc(O)nc(Nc2nc3ccccc3o2)n1 = 9.09 µM (active)
O=C(N/N=C/c1ccccn1)c1ccc(Cl)c(Cl)c1 = 22.9 µM (active)

Here's the next entry for you.
**Q:** Give the measured EC50 for O=C(CCn1cnc(-c2ccccc2)c1-c1ccccc1)N/N=C/c1ccccc1O
**A:** 2.13 µM (active)

* * *

Please go through the items and note down their IC50.
# Target Or System: Large T antigen (Simian virus 40);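 further: Confirmatory-stage PubChem screen for compounds that inhibit SV40 T antigen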
# Sequence (P03070 whole entry): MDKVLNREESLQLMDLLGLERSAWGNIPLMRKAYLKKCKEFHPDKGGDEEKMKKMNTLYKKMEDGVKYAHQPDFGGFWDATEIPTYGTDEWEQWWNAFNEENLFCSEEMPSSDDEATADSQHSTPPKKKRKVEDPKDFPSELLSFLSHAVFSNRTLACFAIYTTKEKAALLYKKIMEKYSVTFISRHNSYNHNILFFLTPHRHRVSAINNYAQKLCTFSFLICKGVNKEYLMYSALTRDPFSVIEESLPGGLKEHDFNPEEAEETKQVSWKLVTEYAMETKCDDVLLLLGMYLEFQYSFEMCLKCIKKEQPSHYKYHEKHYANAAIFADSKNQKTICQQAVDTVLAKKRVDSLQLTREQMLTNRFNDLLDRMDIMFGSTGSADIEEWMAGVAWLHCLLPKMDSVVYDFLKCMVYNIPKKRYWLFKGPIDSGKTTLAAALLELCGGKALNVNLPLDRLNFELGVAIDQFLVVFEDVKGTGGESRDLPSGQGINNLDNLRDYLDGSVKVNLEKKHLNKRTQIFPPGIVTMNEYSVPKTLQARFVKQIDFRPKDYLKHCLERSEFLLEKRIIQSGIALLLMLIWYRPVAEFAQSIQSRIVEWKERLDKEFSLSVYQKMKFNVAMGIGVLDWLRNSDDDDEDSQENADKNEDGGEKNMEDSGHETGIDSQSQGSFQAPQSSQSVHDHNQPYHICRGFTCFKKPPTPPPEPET
# Type: functional, Betapolyomavirus macacae
Active and inactive are the calls of the source.

Cc1ccc(C2=NC(=O)/C(=C/c3cc(O)c(O)c(Br)c3)S2)cc1 = 4.91 µM (active)

Please state, for each entry, its recorded IC50.
1. CCC(C)(C)n1nnnc1C(c1ccc2ncccc2c1)N1CCN(c2ccc(O)cc2)CC1 (configuration not stated)
2. Cc1c(CC(=O)N2CCN(C(=O)C3COc4ccccc4O3)CC2)c(=O)oc2c(O)c(O)ccc12 (configuration not stated)
3. CN(C)c1ccc(N/C=C/C(=O)C(F)(F)F)cc1
4. CC1=C/C(=N\OS(=O)(=O)c2ccccc2)C(C(C)C)=CC1=O
5. CCCCCn1c(=O)c2ccccc2n2c(S)nnc12
6. COc1ccc(N2CCN(C(=O)CN(c3ccccc3)S(C)(=O)=O)CC2)cc1

**A:**
1: 34.6 µM (active); 2: 2.43 µM (active); 3: 9.98 µM (active); 4: 48.2 µM (active); 5: 16.8 µM (active); 6: > 100 µM (active)

* * *

Please go through the items and note down their AC50.
# Target Or System: Paired box protein Pax-8 (Homo sapiens)
# Sequence (Q06710 whole entry): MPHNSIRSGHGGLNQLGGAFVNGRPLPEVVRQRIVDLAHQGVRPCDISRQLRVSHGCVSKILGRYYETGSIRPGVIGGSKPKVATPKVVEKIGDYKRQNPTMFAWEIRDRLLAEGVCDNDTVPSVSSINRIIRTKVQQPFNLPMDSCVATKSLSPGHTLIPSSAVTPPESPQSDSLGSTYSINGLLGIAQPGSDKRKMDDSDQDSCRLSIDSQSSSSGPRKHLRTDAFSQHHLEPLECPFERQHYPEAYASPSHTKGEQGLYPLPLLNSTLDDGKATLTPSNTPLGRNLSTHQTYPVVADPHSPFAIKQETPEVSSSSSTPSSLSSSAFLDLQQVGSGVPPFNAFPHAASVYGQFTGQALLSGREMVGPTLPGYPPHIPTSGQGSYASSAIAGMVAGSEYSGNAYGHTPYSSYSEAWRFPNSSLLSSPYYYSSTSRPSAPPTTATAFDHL
# Method Notes: PAX8 transcriptional activity inhibition in RMG-I – RMG-I cells, luciferase, cherry-pick, dose response (AID 687027);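 further: luciferase reporter driven by Pax8 target thyroperoxidase promoter measured by SteadyGlo luminescence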
# Assay type: functional, cell-based
The source made the active and inactive calls.

Worked set:
C[C@H]1CCCCO[C@@H](CN(C)Cc2ccc(C(F)(F)F)cc2)[C@@H](C)CN([C@@H](C)CO)C(=O)c2cc(NC(=O)Nc3ccc(F)cc3)ccc2O1 = 5.26 µM (active)
C[C@@H]1CCCCO[C@H](CN(C)S(=O)(=O)c2ccc(Cl)cc2)[C@@H](C)CN([C@@H](C)CO)C(=O)c2cc(NS(=O)(=O)c3ccc(F)cc3)ccc2O1 = 7.67 µM (active)
N#C[C@H]1[C@@H](c2ccc(C#Cc3ccc(F)cc3)cc2)[C@H](CO)N1C(=O)C1CCCC1 = 13.4 µM (active)
C[C@@H]1CCCCO[C@H](CN(C)Cc2ccc3c(c2)OCO3)[C@@H](C)CN([C@@H](C)CO)C(=O)c2cc(NC(=O)Nc3ccc(C(F)(F)F)cc3)ccc2O1 = 17.3 µM (active)

Here's the next entry for you.
**Q:** Give the measured AC50 for N#CC1(NC(=O)Cn2ncc(Cl)c(Cl)c2=O)CCCCC1
**A:** 3.01 µM (active)

* * *

# Target Or System: Heat shock factor protein 1 (Mus musculus, UniProt P38532)
# Sequence (P38532 whole entry): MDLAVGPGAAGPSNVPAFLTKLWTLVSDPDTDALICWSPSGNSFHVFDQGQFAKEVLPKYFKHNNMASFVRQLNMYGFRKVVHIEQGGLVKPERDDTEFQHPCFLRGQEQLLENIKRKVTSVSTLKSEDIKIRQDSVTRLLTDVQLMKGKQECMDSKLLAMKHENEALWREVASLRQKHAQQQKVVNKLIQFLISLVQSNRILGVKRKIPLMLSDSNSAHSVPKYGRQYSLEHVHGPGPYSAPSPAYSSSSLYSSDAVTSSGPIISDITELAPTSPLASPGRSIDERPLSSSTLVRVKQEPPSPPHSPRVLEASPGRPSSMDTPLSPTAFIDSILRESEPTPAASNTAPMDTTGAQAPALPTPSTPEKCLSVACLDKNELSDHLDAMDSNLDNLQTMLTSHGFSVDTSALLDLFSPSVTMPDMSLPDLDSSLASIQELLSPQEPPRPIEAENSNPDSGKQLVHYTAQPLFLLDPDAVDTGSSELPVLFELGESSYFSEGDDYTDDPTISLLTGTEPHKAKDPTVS
# Method Notes: decrease of HSF1-responsive luciferase luminescence – cell-based, NIH3T3, dose retest, confirmation (AID 2382);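 further: NIH3T3 fibroblasts with HSF1-driven luciferase reporter stressed by proteasome inhibitor MG132; luminescence from HSF1-driven luciferase expression after 8 hours of MG132 stress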
# Format: functional
The source made the active and inactive calls.
Please go through the items and note down their EC50.

Brc1ccc(C2=CC(c3ccco3)n3ncnc3N2)cc1 (configuration not stated) = > 195 µM (not active)
CCOC(=O)c1ccc(-n2[nH]c(-c3ccccc3)cc2=O)cc1 = > 195 µM (not active)
COc1ccc(N2CCN(C(=O)Cc3ccc(-n4c(=O)[nH]c5ccccc5c4=O)cc3)CC2)cc1 = > 195 µM (not active)

Please state, for each entry, its recorded EC50.
1. Cc1cc(-c2ccccc2)c2ccc(NC(=O)C(C)(C)C)nc2n1
2. Cc1cc(/C=C2/C(=O)NN(c3ccccc3)C2=O)c(C)n1-c1ccc(O)cc1
3. CC1CCCCN1S(=O)(=O)c1ccc(C(=O)Nc2sccc2C(N)=O)cc1 (configuration not stated)
4. Nc1ccc2nc(-c3ccccn3)[nH]c2c1

**A:**
["> 195 µM (not active)", "4.81 µM (active)", "> 195 µM (not active)", "23.2 µM (active)"]

* * *

# System: INS1
# Method Notes: INS-1E survival protection against cytokine death – cell-based, luminescence, retest, dose response (AID 449756);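 further: cell death triggered by IL-1 beta plus TNF-alpha plus IFN-gamma mixture; protective hits raise ATP signal compared with cytokine alone wells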
# Type: functional
# Cond: Rattus norvegicus
Active and inactive are the calls of the source.
A correct response names exactly one class from 1 (active), 0 (inactive)

Examples with answers:
CCCCCCc1cc2cc(-c3nnc(-c4ccccc4O)o3)c(=O)oc2cc1O = 1
C=C(C)C(=O)OCC(O)COc1ccc(C(C)(C)c2ccc(OCC(O)COC(=O)C(=C)C)cc2)cc1 (centres undefined) = 1
CCOC(=O)c1sc(SC)c2c1CCC/C2=N/OC = 0

**Q:** What call does the record list for O=C(N/N=C/c1c(O)ccc2ccccc12)c1ccc(Br)o1 ?
**A:** 1

* * *

Target or system Cytochrome P450 1A2 (Homo sapiens): recorded AC50 listed per item.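 Further: PubChem cytochrome P450 panel assay, CYP1A2 panel member.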

Worked set:
Cn1cccc1C(=O)N1CCC[C@@]2(CCN(c3ccccn3)C2)C1 = 31.6 µM (inconclusive)
O=S(=O)(NCc1cn2ccsc2n1)c1ccc(Oc2ccccc2)cc1 = 5.01 µM (inconclusive)
C=CCN1C[C@H](C)N([C@H](c2ccc(C(=O)N(CC)CC)cc2)c2cccc(O)c2)C[C@H]1C = 39.8 µM (inconclusive)
Cn1cccc1C(=O)N1CCC2(CCCN(Cc3ccncc3)C2)CC1 = 15.8 µM (inconclusive)
O=c1c(Oc2ccccc2Br)c(C(F)(F)F)oc2c(CN3CCCC3)c(O)ccc12 = 17.8 µM (inconclusive)
COC(=O)C1(CC(C)C)C=C2C(=C(C(C)C)C(=O)C2C)CN1 (centres undefined) = 15.8 µM (inconclusive)
Oc1ccc(Cc2nccc3cc(O)c(O)cc23)cc1O = 5.01 µM (inconclusive)
CCC(=O)NCCNC(=O)c1c(SC)nsc1SC = 3.16 µM (inconclusive)

Please state, for each entry, its recorded AC50.
1. CCN(CC)c1ccc(C(=O)OCc2cc(=O)oc3cc(O)ccc23)cc1
2. Cc1cc(C(=O)N[C@H](c2ccccc2)[C@@]2(C)C[C@@H]2[C@@H](C)C(=O)Nc2ccc3ccccc3c2)n(C)n1

**A:**
1. 2.24 µM (inconclusive)
2. 20 µM (inconclusive)

Please state, for each entry, its recorded AC50.
1. COc1ccc(N2CCc3c(C)nc4c(OC)cc(OC)cc4c32)c(OC)c1
2. CCCCOC(=O)c1ccc(NC(=S)NC(=O)c2c(Cl)cnn2C)cc1
3. O=C(O)C(Cc1ccccc1)Cc1ccccc1
4. C[C@@H]1c2ccccc2CN1CC1=NCCN1

**A:**
["22.4 µM (inconclusive)", "39.8 µM (inconclusive)", "0.00501 µM (inconclusive)", "31.6 µM (inconclusive)"]

Please state, for each entry, its recorded AC50.
1. COCC(=O)Oc1c(S(=O)(=O)c2ccc(C)cc2)c(C)nn1-c1ccccc1
2. CC(=O)Nc1ccc(C2=NN(CC#N)C(=O)SC2)cc1

**A:**
1. 6.31 µM (inconclusive)
2. 15.8 µM (inconclusive)

Please state, for each entry, its recorded AC50.
1. N#Cc1cccc(NC(=O)N2CC3(CCN(C(=O)c4ccco4)CC3)C2)c1
2. COc1cc(NC(=O)c2cc3ccccc3o2)c(OC)cc1Br
3. CC(C)[C@@H]1CN[C@H](C(=O)O)[C@@H]1CC(=O)O

**A:**
25.1 µM (inconclusive)
2.24 µM (inconclusive)
39.8 µM (inconclusive)
